# measured on: T1, hIL-18BP-hFc (human, UniProt O95998 31-194, limits assumed)
# T1 sequence (looked up): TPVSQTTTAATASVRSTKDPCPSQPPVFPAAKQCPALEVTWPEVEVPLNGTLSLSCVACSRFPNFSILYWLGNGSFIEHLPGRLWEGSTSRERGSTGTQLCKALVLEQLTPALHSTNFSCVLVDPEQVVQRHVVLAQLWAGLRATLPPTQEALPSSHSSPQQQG
# protocol notes: cell-based or functional assay
quantity kind: EC50 Fold Change (+BP/-BP), hIL-18 reporter assay (fold)
State the answer as a number, implicitly in fold.

IL-18 variant polypeptide M10 (ligand) YFPKLRSKLSVIRNLNDQVLFIDQGNRPLFEDMTDSDCRDNAPRTIFIISMYKQSLWRGMAVTISVKCEKISTLSCENKIISFKEMNPPDSIKDTKSDIIFFQRSVPGHDNKMQFESSSYEGYFLACEKERDLFKLILKKEDELGDRSIMFTVQNED	0.59

// below: EC50 Fold Change (+BP/-BP), hIL-18 reporter assay requested for another binder
q: Quick one: EC50 Fold Change (+BP/-BP), hIL-18 reporter assay for IL-18 variant polypeptide LM4 (ligand) YFPKLKSKLSVIRNLNDQVLFIDQGNRPLFEDMTDSDCRDNAPRTIFIISMYKHSYSRGMAVTISVKCEKISTLSCENKIISFKEMNPPDNIKDTKSDIIFFQRSVPGHDNKMQFESSSYEGYFLACEKERDLFKLILKKEDELGDRSIMFTVQNED ?
a: 1.06
